test-system: UniProtKB Q9Y5N1
Sequence (Q9Y5N1 whole entry, the tested form may be a part): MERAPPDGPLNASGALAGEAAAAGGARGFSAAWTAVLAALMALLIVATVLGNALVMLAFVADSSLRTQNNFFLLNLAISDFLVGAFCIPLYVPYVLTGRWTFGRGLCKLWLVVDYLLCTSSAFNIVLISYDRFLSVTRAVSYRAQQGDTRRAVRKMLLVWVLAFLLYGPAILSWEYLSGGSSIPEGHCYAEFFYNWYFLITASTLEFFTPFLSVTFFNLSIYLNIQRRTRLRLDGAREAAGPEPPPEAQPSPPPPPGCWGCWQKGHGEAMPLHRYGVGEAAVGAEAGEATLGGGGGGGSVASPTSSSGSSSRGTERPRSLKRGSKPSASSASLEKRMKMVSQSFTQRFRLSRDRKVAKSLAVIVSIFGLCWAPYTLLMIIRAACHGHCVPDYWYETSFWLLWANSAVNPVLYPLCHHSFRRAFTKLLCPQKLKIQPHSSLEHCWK
procedure-details: Inhibition of UR-DEBa242 binding to human recombinant NLuc/GPCR-fused H3R expressed in HEK293T cells measured after 30 mins by furimazine substrate based BRET assay
Type: cell-based, HEK-293T
measured-property: Ki (nM)
Give the number; nM is assumed, so skip it.

Ki in this record for CC(C)(C)CNc1nccc(N2CCc3nc[nH]c3C2)n1 : 0.537

* * *

test-system: Histamine H4 receptor (Homo sapiens, UniProt Q9H3N8)
Sequence (Q9H3N8 whole entry): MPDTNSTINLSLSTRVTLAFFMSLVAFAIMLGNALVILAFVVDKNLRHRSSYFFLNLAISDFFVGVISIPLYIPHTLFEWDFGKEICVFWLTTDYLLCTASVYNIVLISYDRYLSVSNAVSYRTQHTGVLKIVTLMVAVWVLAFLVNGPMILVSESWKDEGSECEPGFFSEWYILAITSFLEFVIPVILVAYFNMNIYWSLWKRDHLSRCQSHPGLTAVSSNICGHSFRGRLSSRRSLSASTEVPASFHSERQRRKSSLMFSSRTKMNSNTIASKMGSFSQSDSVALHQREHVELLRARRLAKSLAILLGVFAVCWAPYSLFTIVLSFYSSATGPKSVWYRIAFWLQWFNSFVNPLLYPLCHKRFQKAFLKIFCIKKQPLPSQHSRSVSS
Set-up: species or system Sf9
Kindly supply the reported Ki values for the records listed here.
Give the number; nM is assumed, so skip it.

Ki in this record for Cc1cc(/C=C/C=C/c2ccc(N(C)C)cc2)cc(C)[n+]1CCc1c[nH]cn1 : 1950

Ki in this record for Cc1cc(OCCCNC(=O)CCCCCNC(=O)COc2ccc(/C=C/C3=[N+]4C(=Cc5ccc(-c6ccc[nH]6)n5[B-]4(F)F)C=C3)cc2)ccc1-c1nc2c(C)c(F)ccc2[nH]1 : 1820

Ki in this record for Cc1cc(OCCC[n+]2c(C)cc(/C=C/c3cc4c5c(c3)CCCN5CCC4)cc2C)ccc1-c1nc2c(C)c(F)ccc2[nH]1 : 28200

Ki in this record for Cc1cc(/C=C/C=C/c2ccc(N(C)C)cc2)cc(C)[n+]1CCCNCCc1c[nH]cn1 : 933
